- SYSTEM_NAME: human ribonucleotide reductase (hRR) (Homo sapiens)
- Construct: Preparation of cell extract containing human ribonucleotide reductase (hRR); endogenous in cells; host or cells: HeLa cells (ATCC CCL 2.2); extract cleared with streptomycin sulphate, 50% ammonium sulphate cut, diafiltered
- Sequence (P23921 1-792): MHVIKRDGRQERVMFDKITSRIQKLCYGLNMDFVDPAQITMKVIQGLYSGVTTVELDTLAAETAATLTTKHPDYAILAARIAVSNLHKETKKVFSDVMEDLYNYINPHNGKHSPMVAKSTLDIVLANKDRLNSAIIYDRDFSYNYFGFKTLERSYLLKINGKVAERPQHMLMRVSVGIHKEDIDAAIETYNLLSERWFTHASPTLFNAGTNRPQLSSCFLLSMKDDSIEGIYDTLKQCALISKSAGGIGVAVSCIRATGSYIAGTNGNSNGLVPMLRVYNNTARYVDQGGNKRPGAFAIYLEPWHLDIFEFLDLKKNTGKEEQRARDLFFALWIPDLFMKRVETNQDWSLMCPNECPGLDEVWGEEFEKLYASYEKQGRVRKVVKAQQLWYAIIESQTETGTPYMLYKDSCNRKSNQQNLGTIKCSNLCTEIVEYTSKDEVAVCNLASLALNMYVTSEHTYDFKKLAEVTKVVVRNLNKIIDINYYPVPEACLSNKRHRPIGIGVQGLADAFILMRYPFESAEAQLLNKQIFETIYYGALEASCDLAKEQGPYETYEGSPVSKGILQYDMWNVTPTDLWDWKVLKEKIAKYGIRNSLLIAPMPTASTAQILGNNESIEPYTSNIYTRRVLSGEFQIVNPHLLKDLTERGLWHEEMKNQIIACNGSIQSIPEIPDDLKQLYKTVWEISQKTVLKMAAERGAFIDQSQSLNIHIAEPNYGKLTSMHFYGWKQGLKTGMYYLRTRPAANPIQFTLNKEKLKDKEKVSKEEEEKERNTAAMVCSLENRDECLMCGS
- TEST_SUMMARY: Inhibition of Human Ribonucleotide Reductase Assay
- Type: biochemical
- EXPERIMENTAL_CONDITIONS: Hela cell extract; table of Example 4; read-out: IC50
No end group written: not given here.
MEASURED_ATTRIBUTE: pIC50
Hey, just a heads up that pIC50 is the negative log base 10 of the concentration in molar.

H-VISNSTENSFTLDADF-OH : 4.31

Case Ac-TENSFTLDADF , human ribonucleotide reductase (hRR) (Homo sapiens), pIC50 recorded as 4.08

Case H-TENSFTLDADF-OH , human ribonucleotide reductase (hRR) (Homo sapiens), pIC50 recorded as 4.02

Case Ac-NSFTLDADF-OH , human ribonucleotide reductase (hRR) (Homo sapiens), pIC50 recorded as 4.48

Case H-NSTENSFTLDADF-OH , human ribonucleotide reductase (hRR) (Homo sapiens), pIC50 recorded as 4.21

All figures here come from patent US5071835A.
